Data origin: EPA's aquatic toxicity sets

Would you kindly list 96 h LC50 (-log10 mol/L) for each of these compounds?
system: Pimephales promelas; test: 96 h LC50 (-log10 mol/L); higher = more toxic

- Cc1ccc([N+](=O)[O-])c(N)c1[N+](=O)[O-]: 4.21

Please give 96 h LC50 (-log10 mol/L) for each item listed below.
1. BrC(Br)c1ccccc1C(Br)Br
2. C=CCCCCCCC=C
3. c1ccc2c(c1)-c1cccc3cccc-2c13
4. CCCCCCCCO
5. CCC(C)c1cccc(OC(=O)N(C)Sc2ccccc2)c1 (configuration not stated)
6. C=C1[C@H]2CC[C@@H]3[C@H]2C(C)(C)CCC[C@]13C
7. C=C(C)C1CC=C(C)CC1 (configuration not stated)

1. 5.99
2. 5.68
3. 6.77
4. 3.98
5. 6.91
6. 4.3
7. 2.15

Please give 96 h LC50 (-log10 mol/L) for each item listed below.
1. CN(C)N
2. ClC1=C(Cl)C2(Cl)C3C(Cl)C=CC3C1(Cl)C2(Cl)Cl (configuration not stated)
3. Nc1ccc(Br)cc1
4. CC#N
5. COc1ccc(C(C)=O)c(O)c1
6. CC(=O)c1cccn1C

1: 3.88; 2: 6.75; 3: 3.56; 4: 1.61; 5: 3.38; 6: 2.9

Please give 96 h LC50 (-log10 mol/L) for each item listed below.
1. CCCSCCC
2. ClC1=C(Cl)[C@]2(Cl)C3C(Cl)C(Cl)CC3[C@@]1(Cl)C2(Cl)Cl (some centres not stated)
3. Cc1cc2cccc(C)c2cc1C
4. C=CC(C)(O)CC/C=C(\C)CCC=C(C)C (configuration not stated)
5. CC(C)CCCCCOC(=O)C(C)Oc1cc(Cl)c(Cl)cc1Cl (configuration not stated)
6. C=CCO
7. O=Cc1ccc(Cl)cc1Cl
8. Oc1cc(Cl)c(Cl)cc1O

[3.74, 6.82, 4.42, 5.19, 4.24, 5.26, 4.99, 5.3]

Please give 96 h LC50 (-log10 mol/L) for each item listed below.
1. C#CC(O)(c1ccccc1)c1ccccc1
2. Clc1cccc(C(Cl)(Cl)Cl)n1
3. O=C(c1ccccc1)c1ccncc1
4. CC(C)(C)c1ccc(C(N)=O)cc1
5. CO
6. CNC(=O)O/N=C/C(C)(C)SC
7. CCOC(=O)C(C)Oc1ccc(Oc2nc3ccc(Cl)cc3o2)cc1 (configuration not stated)
8. Oc1ccccc1

1: 4.27; 2: 4.37; 3: 3.25; 4: 3.75; 5: 0.056; 6: 5.17; 7: 4.71; 8: 3.5
